- studySystem: MBP-16E6 (Human papillomavirus 16, UniProt P03126, C104S/C118S/C147S/C87S)
- Sequence (P03126 whole entry C104S/C118S/C147S/C87S, looked up): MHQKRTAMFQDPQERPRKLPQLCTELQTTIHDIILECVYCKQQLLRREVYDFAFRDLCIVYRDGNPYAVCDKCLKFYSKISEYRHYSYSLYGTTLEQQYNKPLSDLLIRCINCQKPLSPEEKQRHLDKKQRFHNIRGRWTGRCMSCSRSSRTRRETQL
- assayDetails: biochemical
Square brackets hold non-standard residues; d marks the D form. Peptide text beside a SMILES is read from it. * marks the point of attachment. 2Nal = N[C@@H](Cc1ccc2ccccc2c1)C(=O)O; Gly(cPent) = N[C@H](C(=O)O)C1CCCC1; Hyp = O=C(O)[C@@H]1C[C@@H](O)CN1; X1 = O=C(Cn1c2ccccc2c2ccccc21)*; Aad = N[C@@H](CCCC(=O)O)C(=O)O; Cba = N[C@@H](CC1CCC1)C(=O)O; Nva = CCC[C@H](N)C(=O)O; Aib = CC(C)(N)C(=O)O; Dha = C=C(N)C(=O)O
I'd be grateful if you could share measured Ki for these entries.
# number only, unit nM dropped from output

Prompt: # lookup: Ki of C=C(NC(=O)[C@H](CC(C)C)NC(=O)[C@H](CC1CCC1)NC(=O)[C@H](CCC(=O)O)NC(=O)C(C)(C)NC(=O)[C@H](CC(C)C)NC(=O)[C@@H](NC(=O)[C@H](Cc1ccc2ccccc2c1)NC(=O)[C@H](CCCC(=O)O)NC(=O)Cn1c2ccccc2c2ccccc21)C1CCCC1)C(=O)N[C@@H](CCC(=O)O)C(=O)N[C@@H](CCC(=O)O)C(=O)N[C@@H](CCCNC(=N)N)C(N)=O [Peptide 18-Car] (X1-[Aad][2Nal][Gly(cPent)]L[Aib]E[Cba]L[Dha]EER-NH2)
Response: 96

Prompt: # lookup: Ki of C=C(NC(=O)[C@H](CC(C)C)NC(=O)[C@H](CC1CCC1)NC(=O)[C@H](CCC(=O)O)NC(=O)C(C)(C)NC(=O)[C@H](CC(C)C)NC(=O)[C@@H](NC(=O)[C@H](CCCCNC(=O)Cn1c2ccccc2c2ccccc21)NC(=O)[C@H](CCCC(=O)O)NC(C)=O)C1CCCC1)C(=O)N[C@@H](CCC(=O)O)C(=O)N[C@@H](CCC(=O)O)C(=O)N[C@@H](CCCNC(=N)N)C(N)=O [Peptide 18-Naf2Cab] (Ac-[Aad]K(X1)[Gly(cPent)]L[Aib]E[Cba]L[Dha]EER-NH2)
Response: 51

Prompt: # lookup: Ki of C=C(NC(=O)[C@H](CC(C)C)NC(=O)[C@H](CC1CCC1)NC(=O)[C@H](CCC(=O)O)NC(=O)C(C)(C)NC(=O)[C@H](CC(C)C)NC(=O)[C@@H](NC(=O)[C@H](Cc1ccc2ccccc2c1)NC(=O)[C@H](CCCC(=O)O)NC(=O)[C@H](C)NC(=O)[C@H](CO)NC(=O)[C@H](CCC(N)=O)NC(=O)[C@@H]1CCCN1C(=O)[C@@H](NC(=O)Cn1c2ccccc2c2ccccc21)[C@@H](C)CC)C1CCCC1)C(N)=O [18-Car-IPQSA-truncEER] (X1-IPQSA[Aad][2Nal][Gly(cPent)]L[Aib]E[Cba]L[Dha]-NH2)
Response: 44

Prompt: # lookup: Ki of C=C(NC(=O)[C@H](CCC)NC(=O)[C@H](CC1CCC1)NC(=O)[C@H](CCC(=O)O)NC(=O)CNC(=O)[C@H](CCC)NC(=O)[C@@H]1C[C@@H](O)CN1C(=O)[C@H](CCC)NC(=O)[C@@H](N)CCCC(=O)O)C(=O)N[C@@H](CCC(=O)O)C(=O)N[C@@H](CCC(=O)O)C(=O)N[C@@H](CCCNC(=N)N)C(N)=O [peptide 3] (H-[Aad][Nva][Hyp][Nva]GE[Cba][Nva][Dha]EER-NH2)
Response: 466

All figures here come from patent US20260297131A1.
